Test system: HEK293
Assay: Cytotoxicity against HEK293 cells assessed as cell viability at 10 uM incubated for 4 hrs by MTT assay relative to control
Format: toxicity, cell-based
Conditions: human, hek293, 4 h, 10 µM
Each entry below lists one item and its recorded Activity value.
quantityKind: Activity (%)

[
  {
    "chemicalString": "C#CCNS(=O)(=O)c1ccc(CCN(Cc2cc(Cl)ccc2OCCC)C(=O)c2ccc([N+](=O)[O-])cc2)cc1",
    "assaySystem": "HEK293",
    "quantityKind": "Activity",
    "observedMeasurement": 91.6
  },
  {
    "chemicalString": "C#CCNS(=O)(=O)c1ccc(CCN(Cc2cc(Cl)ccc2OCCC)C(=O)c2ccc(B3OC(C)(C)C(C)(C)O3)cc2)cc1",
    "assaySystem": "HEK293",
    "quantityKind": "Activity",
    "observedMeasurement": 95.2
  },
  {
    "chemicalString": "C#CCNS(=O)(=O)c1ccc(CCN(Cc2cc(Cl)ccc2OCCC)C(=O)Cc2csc3ccccc23)cc1",
    "assaySystem": "HEK293",
    "quantityKind": "Activity",
    "observedMeasurement": 99.8
  },
  {
    "chemicalString": "C#CCNS(=O)(=O)c1ccc(CCN(Cc2cc(Cl)ccc2OCC#C)C(=O)Cc2ccsc2)cc1",
    "assaySystem": "HEK293",
    "quantityKind": "Activity",
    "observedMeasurement": 94.8
  },
  {
    "chemicalString": "C#CCS(=O)(=O)c1ccc(CCN(Cc2cc(Cl)ccc2OCCC)C(=O)Cc2ccsc2)cc1",
    "assaySystem": "HEK293",
    "quantityKind": "Activity",
    "observedMeasurement": 88.7
  },
  {
    "chemicalString": "C#CCNS(=O)(=O)c1ccc(CCN(Cc2ccco2)C(=O)Cc2ccsc2)cc1",
    "assaySystem": "HEK293",
    "quantityKind": "Activity",
    "observedMeasurement": 96.4
  },
  {
    "chemicalString": "C#CCN(C)S(=O)(=O)c1ccc(CCN(Cc2cc(Cl)ccc2OCCC)C(=O)Cc2ccsc2)cc1",
    "assaySystem": "HEK293",
    "quantityKind": "Activity",
    "observedMeasurement": 94.5
  },
  {
    "chemicalString": "C#CCNS(=O)(=O)c1ccc(CCN(Cc2cc(Cl)ccc2O)C(=O)Cc2ccsc2)cc1",
    "assaySystem": "HEK293",
    "quantityKind": "Activity",
    "observedMeasurement": 97.6
  },
  {
    "chemicalString": "CCCOc1ccc(Cl)cc1CN(CCc1ccc(S(=O)(=O)N2CCC2)cc1)C(=O)c1csc2ccccc12",
    "assaySystem": "HEK293",
    "quantityKind": "Activity",
    "observedMeasurement": 100.7
  }
]
